Cited source for all entries: PubChem BioAssay (NCI)

- Tested on: HCT-116 colon
- METHOD_DESCRIPTION: NCI-60 one-dose screen, 48 h (100 = growth as untreated, 0 = no growth, -100 = all killed)
- ASSAY_CONDITIONS: 10 µM
Compounds without any hit were thinned out: in the full panel of roughly 83,000, 20% have a hit.
ASSAY_METRIC: growth (%)
Give just the number in %; leave the unit off.

Request: # lookup: growth of CC1=C[C@H]2O[C@@H]3C[C@H]4OC(=O)/C=C\C=C\[C@H]([C@@H](C)O)OCC/C(C)=C/C(=O)OC[C@@]2(CC1)[C@]4(C)[C@]31CO1
Result: -28.7

Request: Report growth for Cc1ccc(CNc2nc3ccc(OC/C(=C/F)CN)cc3o2)cn1 please.
Result: 100

Request: Which growth reading was recorded for the compound CC1=C(CN(O)C(N)=O)C2=C(C)C3(CC3)[C@](C)(O)C(=O)C2=C1 ?
Result: 7.48

Request: For the compound shown here, N#Cc1nc(-c2ccccc2)oc1N1CCC(S(=O)(=O)F)CC1 , give the reported growth.
Result: 101

Request: Bench note: what growth did CC1=C2C(=C[C@@](C)(COC(=O)c3ccc(S(=O)(=O)F)cc3)[C@@H]2OC(=O)c2ccc(S(=O)(=O)F)cc2)C(=O)[C@](C)(O)C12CC2 show?
Result: 0.583

New cases:
Request: Fill in: growth of COc1cc2c(O[C@@H]3OC[C@H](O)[C@H](O)[C@H]3O)c3c(c(-c4ccc5c(c4)OCO5)c2cc1OC)C(=O)OC3 is ___
Result: 29.1

Request: For the compound CC(C)=CCc1c2c(c(O)c3c1O[C@]14C(=C[C@@H]5C[C@H]1C(C)(C)O[C@@]4(C/C=C(/C)C(=O)O)C5=O)C3=O)C=CC(C)(C)O2 , what growth is on record?
Result: -71.5

Request: Could you share which growth value was measured for N#Cc1c(-n2c(Br)c(Br)c3cc(Br)ccc32)[nH]c2c(Br)cc(Br)cc12 ?
Result: -66.1
